Provenance of the data: patent US7084136B2

# Experimental target: TXA2 receptor (Homo sapiens)
# Construct: The human platelet membrane fraction was prepared in accordance with Experiment 1 (1); from tissue; host or cells: human platelet membrane fraction from blood of healthy volunteers
# Sequence (P21731 whole entry): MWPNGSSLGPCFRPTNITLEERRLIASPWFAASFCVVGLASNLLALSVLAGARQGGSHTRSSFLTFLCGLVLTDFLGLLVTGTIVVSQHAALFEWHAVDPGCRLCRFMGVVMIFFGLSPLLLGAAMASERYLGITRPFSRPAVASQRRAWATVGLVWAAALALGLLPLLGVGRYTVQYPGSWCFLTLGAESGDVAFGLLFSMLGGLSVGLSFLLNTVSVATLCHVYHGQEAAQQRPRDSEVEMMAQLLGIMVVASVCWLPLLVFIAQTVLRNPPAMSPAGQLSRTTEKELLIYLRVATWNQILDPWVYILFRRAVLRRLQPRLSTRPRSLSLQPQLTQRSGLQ
# Assay: Binding activity to TXA2 receptor ([3H](+)-S-145 sodium salt, human platelet membrane fraction)
# Measurement setup: human platelet membrane fraction; 2 nM [3H](+)-S-145 sodium salt; read-out: Binding activity to TXA2 receptor in human platelet membrane fraction IC50
# Experimental: Experiment 2 Binding Activity to TXA2 Receptor (1) Preparation of Human Platelet Membrane Fraction The human platelet membrane fraction was prepared in accordance with Experiment 1 (1). (2) Binding to TXA2 Receptor […]
Attribute measured: log10(IC50) (log10 of the value in nM)
Plainly stated, the numbers are log10 of IC50 given in nM.

- Molecule: "O=C(O)CCC/C=C\\C[C@H]1[C@@H]2CC[C@@H](C2)[C@@H]1NC(=O)c1ccc(Cc2ccccc2)s1 [I-31]"
  Observed result: 2.11
- Molecule: "Cc1cccn1S(=O)(=O)c1ccc(C(=O)N[C@@H]2[C@@H](C/C=C\\CCCC(=O)O)C[C@H]3C[C@@H]2C3(C)C)s1 [II-55]"
  Observed result: 0.64
- Molecule: "O=C(O)CCC/C=C\\C[C@H]1[C@@H]2CC[C@@H](C2)[C@@H]1NC(=O)c1ccn(S(=O)(=O)c2cccs2)c1 [I-94]"
  Observed result: 1.92
- Molecule: "O=C(O)CCC/C=C\\C[C@H]1[C@@H]2CC[C@@H](C2)[C@@H]1NC(=O)c1ccc(S(=O)(=O)n2cccc2)cc1 [I-10]"
  Observed result: 1.96
- Molecule: "O=C(O)CCC/C=C\\C[C@H]1[C@@H]2CC[C@@H](C2)[C@@H]1NC(=O)c1ccc(S(=O)(=O)c2cccc(O)c2)s1 [I-117]"
  Observed result: 0.58
- Molecule: "CC1(C)[C@H]2C[C@H](C/C=C\\CCCC(=O)O)[C@@H](NC(=O)c3ccc(S(=O)(=O)n4cccc4)s3)[C@@H]1C2 [II-1]"
  Observed result: 1.08

*Q* Consider the molecule O=C(O)CCC/C=C\C[C@H]1[C@@H]2CC[C@@H](C2)[C@@H]1NC(=O)c1ccc(SCc2cccs2)cc1 [I-66] and give its measured log10(IC50).
*A* 1.53

*Q* Consider the molecule O=C(O)CCC/C=C\C[C@H]1[C@@H]2CC[C@@H](C2)[C@@H]1NC(=O)c1cc(Cc2cccs2)cs1 [I-88] and give its measured log10(IC50).
*A* 1.89

---

# Experimental target: PGD2 receptor (Homo sapiens)
# Construct: A suspension adjusted to contain the platelets at a final concentration of 5×10^8/ml was warmed at 37° C; endogenous in cells; host or cells: washed human platelets from a healthy volunteer
# Sequence (Q13258 whole entry): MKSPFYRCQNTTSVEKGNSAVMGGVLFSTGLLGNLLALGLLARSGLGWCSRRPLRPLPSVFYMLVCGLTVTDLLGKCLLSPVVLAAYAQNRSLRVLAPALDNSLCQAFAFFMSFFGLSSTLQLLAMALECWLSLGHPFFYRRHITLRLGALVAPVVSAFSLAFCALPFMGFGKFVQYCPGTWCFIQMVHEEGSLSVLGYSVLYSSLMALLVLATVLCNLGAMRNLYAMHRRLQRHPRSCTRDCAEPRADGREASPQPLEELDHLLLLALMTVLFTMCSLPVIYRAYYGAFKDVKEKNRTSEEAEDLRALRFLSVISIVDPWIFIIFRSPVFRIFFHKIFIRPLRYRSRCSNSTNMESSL
# Assay: Antagonistic activity against PGD2 receptor using human platelet (inhibition of PGD2-induced cAMP increase)
# Assay type: cell-based
# Measurement setup: comparative experiment in accordance with Experiment 3; read-out: Experiment 3 Antagonistic activity against PGD2 receptor IC50
Attribute measured: pIC50
Interpret pIC50 as the negative base-10 log of the concentration measured in mol/L.

- Molecule: "Cc1cccn1S(=O)(=O)c1ccc(C(=O)N[C@@H]2[C@@H](CCCC/C=C/C(=O)O)C[C@H]3C[C@@H]2C3(C)C)s1 [II-7I-55a]"
  pIC50: 7.20

We now examine a further molecule.
*Q* Consider the molecule CC1(C)[C@H]2C[C@H](C/C=C\CCCC(=O)O)[C@@H](NC(=O)c3csc4ccccc34)[C@@H]1C2 [B-1, reference compound] and give its measured pIC50.
*A* 7.52
